- Tested on: B. subtilis 168;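 further: first quartile when negative (synergy) and third quartile when positive (antagonism)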
- ASSAY_SUMMARY: Bliss interaction score (quartile over a dose matrix) (fitness difference); higher = more antagonism (negative = synergy)
READOUT_TYPE: Bliss interaction score
Write the number on its own, no unit after it.

State the recorded Bliss interaction score for this entry: CCCCCCCCCC(=O)N[C@@H](Cc1c[nH]c2ccccc12)C(=O)N[C@H](CC(N)=O)C(=O)N[C@@H](CC(=O)O)C(=O)N[C@@H]1C(=O)NCC(=O)N[C@@H](CCCN)C(=O)N[C@@H](CC(=O)O)C(=O)N[C@H](C)C(=O)N[C@@H](CC(=O)O)C(=O)NCC(=O)N[C@H](CO)C(=O)N[C@@H]([C@H](C)CC(=O)O)C(=O)N[C@@H](CC(=O)c2ccccc2N)C(=O)O[C@@H]1C [Daptomycin] + CC(=O)NC[C@H]1CN(c2ccc(N3CCOCC3)c(F)c2)C(=O)O1 [Linezolid]
0.0563

State the recorded Bliss interaction score for this entry: CCN(CC)CCOC(=O)c1ccc(N)cc1 [Procaine] + COc1ccc(C[C@H](N)C(=O)N[C@H]2[C@@H](O)[C@H](n3cnc4c(N(C)C)ncnc43)O[C@@H]2CO)cc1 [Puromycin]
0.0785

State the recorded Bliss interaction score for this entry: CO/N=C(\C(=O)N[C@@H]1C(=O)N2C(C(=O)[O-])=C(C[N+]3(C)CCCC3)CS[C@H]12)c1csc(N)n1 [Cefepime] + C[C@@H]1O[C@@H]1P(=O)(O)O [Fosfomycin]
-0.0571

State the recorded Bliss interaction score for this entry: CCCCCCCCCC(=O)N[C@@H](Cc1c[nH]c2ccccc12)C(=O)N[C@H](CC(N)=O)C(=O)N[C@@H](CC(=O)O)C(=O)N[C@@H]1C(=O)NCC(=O)N[C@@H](CCCN)C(=O)N[C@@H](CC(=O)O)C(=O)N[C@H](C)C(=O)N[C@@H](CC(=O)O)C(=O)NCC(=O)N[C@H](CO)C(=O)N[C@@H]([C@H](C)CC(=O)O)C(=O)N[C@@H](CC(=O)c2ccccc2N)C(=O)O[C@@H]1C [Daptomycin] + CN(C)c1cc(NC(=O)CNC(C)(C)C)c(O)c2c1C[C@H]1C[C@H]3[C@H](N(C)C)C(O)=C(C(N)=O)C(=O)[C@@]3(O)C(O)=C1C2=O [Tigecycline]
-0.0609

State the recorded Bliss interaction score for this entry: CN(C)C(=O)C(CCN1CCC(O)(c2ccc(Cl)cc2)CC1)(c1ccccc1)c1ccccc1 [Loperamide] + Cn1nnc(-c2ccc(-c3ccc(N4C[C@H](CO)OC4=O)cc3F)cn2)n1 [Tedizolid]
0.06

State the recorded Bliss interaction score for this entry: CO/N=C(\C(=O)N[C@@H]1C(=O)N2C(C(=O)[O-])=C(C[N+]3(C)CCCC3)CS[C@H]12)c1csc(N)n1 [Cefepime] + COc1cccc2c1C(=O)c1c(O)c3c(c(O)c1C2=O)C[C@@](O)(C(=O)CO)C[C@@H]3O[C@H]1C[C@H](N)[C@H](O)[C@H](C)O1 [Doxorubicin]
-0.239

State the recorded Bliss interaction score for this entry: CC1(C)S[C@@H]2[C@H](NC(=O)[C@H](N)c3ccc(O)cc3)C(=O)N2[C@H]1C(=O)O [Amoxicillin] + CO[C@H]1/C=C/O[C@@]2(C)Oc3c(C)c(O)c4c(O)c(c(/C=N/N5CCN(C)CC5)c(O)c4c3C2=O)NC(=O)/C(C)=C\C=C\[C@H](C)[C@H](O)[C@@H](C)[C@@H](O)[C@@H](C)[C@H](OC(C)=O)[C@@H]1C [Rifampicin]
0.0837

This collection of values is drawn from the supplement of paper PMC10627819.
